# Measurement Description: The drug is tested on the gut metagenome community of A-04 with ENA study accession number: PRJEB31790 for biotransformation under microaerobic condition. The drug concentrations were measured over 7 timepoints collected between 0 and 12 hours of incubation by liquid-chromatography-coupled mass spectrometry (LC–MS)
# Format: ADME
# Set-up: dose 5 uM, timepoint 0, 0.75, 1.5, 3, 6, 9, 12 hours
# Conditions: 5 µM
Measured Endpoint: Bacterial Biotransformation

Would you please look over these solved cases?
Compound	Bacterial Biotransformation
COc1c(C)c2c(c(O)c1C/C=C(\C)CCC(=O)O)C(=O)OC2 [MYCOPHENOLIC ACID]	Compound NOT metabolized
CCCC1O[C@@H]2C[C@H]3[C@@H]4CCC5=CC(=O)C=C[C@]5(C)[C@H]4[C@@H](O)C[C@]3(C)[C@]2(C(=O)CO)O1 (some centres undefined) [BUDESONIDE]	Compound metabolized
CNC(=C[N+](=O)[O-])NCCSCc1ccc(CN(C)C)o1 [RANITIDINE]	Compound metabolized
C[C@H]1C[C@H]2[C@@H]3CCC4=CC(=O)C=C[C@]4(C)[C@@]3(F)[C@@H](O)C[C@]2(C)[C@@]1(O)C(=O)CO [BETAMETHASONE]	Compound metabolized
CCOC(=O)C1=C(COCCN)NC(C)=C(C(=O)OC)C1c1ccccc1Cl (centres undefined) [AMLODIPINE]	Compound NOT metabolized
C[C@@H](NCCCc1cccc(C(F)(F)F)c1)c1cccc2ccccc12	Compound NOT metabolized
COc1ccc([C@@H]2Sc3ccccc3N(CCN(C)C)C(=O)[C@@H]2OC(C)=O)cc1 [DILTIAZEM]	Compound metabolized
C[C@]12CCC(=O)C=C1CC[C@@H]1[C@@H]2[C@@H](O)C[C@@]2(C)[C@H]1CC[C@]2(O)C(=O)CO [HYDROCORTISONE]	Compound metabolized
C[C@H]1C[C@@H]2[C@H]([C@@H](O)C[C@@]3(C)[C@H]2CC[C@]3(O)C(=O)CO)[C@@]2(C)C=CC(=O)C=C12 [METHYLPREDNISOLONE]	Compound metabolized
C[C@]12C=CC(=O)C=C1CC[C@@H]1[C@@H]2[C@@H](O)C[C@@]2(C)[C@H]1CC[C@]2(O)C(=O)CO [PREDNISOLONE]	Compound metabolized

Query string: Look up Bacterial Biotransformation for this compound: C[C@@H]1C[C@H]2[C@@H]3CCC4=CC(=O)C=C[C@]4(C)[C@@]3(F)[C@@H](O)C[C@]2(C)[C@@]1(O)C(=O)CO [DEXAMETHASONE]
Result string: Compound NOT metabolized

Query string: Repeat with CO[C@H]1C[C@@H]2CC[C@@H](C)[C@@](O)(O2)C(=O)C(=O)N2CCCC[C@H]2C(=O)O[C@H]([C@H](C)C[C@@H]2CC[C@@H](O)[C@H](OC)C2)CC(=O)[C@H](C)/C=C(\C)[C@@H](O)[C@@H](OC)C(=O)[C@H](C)C[C@H](C)/C=C/C=C/C=C/1C [SIROLIMUS]
Result string: Compound metabolized

Query string: Repeat with COc1c(C)c2c(c(O)c1C/C=C(\C)CCC(=O)OCCN1CCOCC1)C(=O)OC2 [MYCOPHENOLATE MOFETIL]
Result string: Compound metabolized

Query string: Repeat with NS(=O)(=O)c1cc(C(=O)O)c(NCc2ccco2)cc1Cl [FUROSEMIDE]
Result string: Compound NOT metabolized
